Tested on: 598228-144-R-J1-PDC complex spheroids, viability;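 also: spheroids exposed to compounds for seven days before readout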
Assay: Anticancer human tumor 598228-144-R-J1-PDC patient-derived serous endometrial adenocarcinoma cell line growth inhibition [CLK]
Conditions: second compound 0.1 µM; first compound 10 µM; active compounds read low
# label = t if viability, T/C < 80% else f

Consider the worked cases shown below.
CCCS(=O)(=O)Nc1ccc(F)c(C(=O)c2c[nH]c3ncc(-c4ccc(Cl)cc4)cc23)c1F + CNC(=O)c1ccc(Nc2nc(OC3CCCC3)c3c(-c4ccc5nc(C)oc5c4)c[nH]c3n2)c(OC)c1 :: t
O=C(c1cc(Cc2n[nH]c(=O)c3ccccc23)ccc1F)N1CCN(C(=O)C2CC2)CC1 + CN1CCN(c2cc(C(=O)Nc3cc4cc(-c5cnn(C)c5)ccc4cn3)ccn2)CC1 :: f
C#Cc1c(F)ccc2cc(O)cc(-c3ncc4c(N5CC6CCC(C5)N6)nc(OCC56CCCN5CC(F)C6)nc4c3F)c12 (stereo not given) + CNC(=O)c1ccc(Nc2nc(OC3CCCC3)c3c(-c4ccc5nc(C)oc5c4)c[nH]c3n2)c(OC)c1 :: f
COC1C=CCC(C)C(C)S(=O)(=O)NC(=O)c2ccc3c(c2)N(CC2CCC21)CC1(CCCc2cc(Cl)ccc21)CO3 (stereo not given) + CNC(=O)c1ccc(Nc2nc(OC3CCCC3)c3c(-c4ccc5nc(C)oc5c4)c[nH]c3n2)c(OC)c1 :: t
CC(Nc1ccc2c(c1)OCCn1cc(N3C(=O)OCC3C(F)F)nc1-2)C(N)=O (stereo not given) + CNC(=O)c1ccc(Nc2nc(OC3CCCC3)c3c(-c4ccc5nc(C)oc5c4)c[nH]c3n2)c(OC)c1 :: t
CC1COCCN1c1cc(C2(S(C)(=N)=O)CC2)nc(-c2ccnc3[nH]ccc23)n1 (stereo not given) + CNC(=O)c1ccc(Nc2nc(OC3CCCC3)c3c(-c4ccc5nc(C)oc5c4)c[nH]c3n2)c(OC)c1 :: t
CC(=O)O[C@H]1C(=O)[C@@]2(C)[C@H]([C@H](OC(=O)c3ccccc3)[C@]3(O)C[C@H](OC(=O)[C@H](O)[C@@H](NC(=O)c4ccccc4)c4ccccc4)C(C)=C1C3(C)C)[C@]1(OC(C)=O)CO[C@@H]1C[C@@H]2O + CN1CCN(c2cc(C(=O)Nc3cc4cc(-c5cnn(C)c5)ccc4cn3)ccn2)CC1 :: t
CC1(C)CCC(CN2CCN(c3ccc(C(=O)NS(=O)(=O)c4ccc(NCC5CCOCC5)c([N+](=O)[O-])c4)c(Oc4cnc5[nH]ccc5c4)c3)CC2)=C(c2ccc(Cl)cc2)C1 + CNC(=O)c1ccc(Nc2nc(OC3CCCC3)c3c(-c4ccc5nc(C)oc5c4)c[nH]c3n2)c(OC)c1 :: t
COc1cccc2c1C(=O)c1c(O)c3c(c(O)c1C2=O)CC(O)(C(=O)CO)CC3OC1CC(N)C(O)C(C)O1 (stereo not given) + CNC(=O)c1ccc(Nc2nc(OC3CCCC3)c3c(-c4ccc5nc(C)oc5c4)c[nH]c3n2)c(OC)c1 :: t
O=c1[nH]cc(F)c(=O)[nH]1 + CNC(=O)c1ccc(Nc2nc(OC3CCCC3)c3c(-c4ccc5nc(C)oc5c4)c[nH]c3n2)c(OC)c1 :: t

is_below(viability, T/C, 80%) for CC(CO)NC(=O)c1cc(-c2ccc(Cl)cc2)nn(-c2cnn(C)c2)c1=O (stereo not given) + CNC(=O)c1ccc(Nc2nc(OC3CCCC3)c3c(-c4ccc5nc(C)oc5c4)c[nH]c3n2)c(OC)c1 ?
f

is_below(viability, T/C, 80%) for C#Cc1c(F)ccc2cc(O)cc(-c3ncc4c(N5CC6CCC(C5)N6)nc(OCC56CCCN5CC(F)C6)nc4c3F)c12 (stereo not given) + CN1CCN(c2cc(C(=O)Nc3cc4cc(-c5cnn(C)c5)ccc4cn3)ccn2)CC1 ?
f

is_below(viability, T/C, 80%) for CC(Nc1ccc2c(c1)OCCn1cc(N3C(=O)OCC3C(F)F)nc1-2)C(N)=O (stereo not given) + CN1CCN(c2cc(C(=O)Nc3cc4cc(-c5cnn(C)c5)ccc4cn3)ccn2)CC1 ?
t
